The reported measurements were obtained from patent US20120231006A1.

Study System: T1, mOrai1-hOrai1 ECL2 (…) protein (human/mouse chimera, UniProt Q8BWG9 1-304 (mouse entry))
T1 construct: also called Ch
T1 sequence (Q8BWG9 other isoform, or with tags, fused parts or gaps): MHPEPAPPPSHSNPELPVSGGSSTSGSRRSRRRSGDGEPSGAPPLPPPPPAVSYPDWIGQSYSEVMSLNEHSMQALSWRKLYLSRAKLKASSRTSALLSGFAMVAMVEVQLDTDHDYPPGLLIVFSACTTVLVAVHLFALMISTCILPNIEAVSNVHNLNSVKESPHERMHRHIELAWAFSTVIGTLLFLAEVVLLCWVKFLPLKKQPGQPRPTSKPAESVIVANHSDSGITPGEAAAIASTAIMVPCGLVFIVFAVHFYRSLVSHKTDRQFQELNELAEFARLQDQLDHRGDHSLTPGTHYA
Assay Text: flow cytometry on HEK-293 cells transfected with the chimera (loss of binding experiment)
Metric: binding result

mAb 5C1.1 (antibody, human IgG2, lambda, V domains shown, fully human IgG2 lambda, Campaign 2) VH: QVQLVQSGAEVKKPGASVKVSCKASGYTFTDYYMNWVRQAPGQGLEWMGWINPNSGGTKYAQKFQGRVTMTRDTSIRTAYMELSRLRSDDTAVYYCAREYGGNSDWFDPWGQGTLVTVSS VL: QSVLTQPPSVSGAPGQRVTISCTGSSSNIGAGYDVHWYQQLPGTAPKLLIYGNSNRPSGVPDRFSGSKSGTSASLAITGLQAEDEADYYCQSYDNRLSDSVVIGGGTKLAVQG : no binding
mAb 5B5.2 (antibody, human IgG2, lambda, V domains shown, fully human IgG2 lambda, Campaign 2; same chains as 5B5.1) VH: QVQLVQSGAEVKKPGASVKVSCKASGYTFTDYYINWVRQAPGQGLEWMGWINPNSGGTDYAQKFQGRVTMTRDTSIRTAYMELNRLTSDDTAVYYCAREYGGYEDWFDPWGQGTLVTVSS VL: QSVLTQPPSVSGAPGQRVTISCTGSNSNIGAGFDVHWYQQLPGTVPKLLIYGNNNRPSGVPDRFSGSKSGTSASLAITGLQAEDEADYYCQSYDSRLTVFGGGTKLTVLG : no binding
mAb 2B4.1 (antibody, human IgG2, lambda, V domains shown) VH: QVQLVQSGAEVKKPGASVKVSCKASGYTFTDYYMHWVRQAPGQGLEWMGWINPNSGGTNYVQKFQDRVTMTRDTSITTAYMELTRLRSDDTAVYYCAREEGDYGMDVWGQGTTVTVSS VL: QSVLTQPPSVSGAPGQRVTISCTGSNSNIGTGYDVHWYQKLPGTAPRLLIYSHFNRPSGVPDRFSGSTSGTSASLAITGLQAEDEADYYCQSYDSSLSGSVFGGGTKLTVLG : no binding
mAb 5F2.1 (antibody, human IgG2, lambda, V domains shown, fully human IgG2 lambda, Campaign 2) VH: QVQLVQSGAEVKKPGASVKVSCKASGYTFTDYYMNWVRQAPGQGLEWMGWINPNSGGTHYAQKFQGRVTMTRDTSISTAYMELSRLRSDDTAVYYCAREYGGYSDWFDPWGQGTLVTVSS VL: QSVLTQPPSVSGAPGQRVTISCTGSRSNIGAGYDVHWYQQLPRTAPKLLIYDNSNRPSGVPDRFSGSKSGSSASLAITGLQAEDEADYYCQSYDNSLSDSVLIGGGTKLTVLG : no binding
